Target: T1, biotinylated human recombinant IL-12Rβ2 (produced in-house) (human, UniProt Q99665 24-622, random biotinylated)
T1 construct: Soluble recombinant protein used for panning, ELISA and BLI; also called hIL-12RB2; hIL12RB2
T1 sequence: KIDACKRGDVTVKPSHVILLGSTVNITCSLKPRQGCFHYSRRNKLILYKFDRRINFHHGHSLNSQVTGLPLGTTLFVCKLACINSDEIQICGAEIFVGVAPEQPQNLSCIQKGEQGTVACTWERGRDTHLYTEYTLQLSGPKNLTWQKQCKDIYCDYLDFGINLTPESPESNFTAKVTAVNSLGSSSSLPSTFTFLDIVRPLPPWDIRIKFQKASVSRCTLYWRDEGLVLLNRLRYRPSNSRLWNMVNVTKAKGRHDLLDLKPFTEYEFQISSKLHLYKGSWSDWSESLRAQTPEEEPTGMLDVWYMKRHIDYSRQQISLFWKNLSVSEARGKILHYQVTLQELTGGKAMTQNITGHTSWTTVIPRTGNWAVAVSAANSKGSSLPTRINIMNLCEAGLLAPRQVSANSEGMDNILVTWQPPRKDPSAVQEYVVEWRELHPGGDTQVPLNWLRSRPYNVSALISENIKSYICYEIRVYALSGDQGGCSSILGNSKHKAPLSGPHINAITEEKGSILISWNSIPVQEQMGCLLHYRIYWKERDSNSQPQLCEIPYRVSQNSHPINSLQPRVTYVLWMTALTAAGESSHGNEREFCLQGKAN
Experiment: BLI (Octet Red), periplasmic extract on biotinylated human IL-12Rβ2 on streptavidin tips, 1:1 model
Let's look at some binders and their measured koff.
Report the figure in s⁻¹ without appending any unit label.

Note koff for the binder shown: anti-IL-12Rβ2 VHH clone 3CRHM73 (clone ID 21060) (VHH, Tested as periplasmic extract; not shown: C-terminal HA tag) VHH: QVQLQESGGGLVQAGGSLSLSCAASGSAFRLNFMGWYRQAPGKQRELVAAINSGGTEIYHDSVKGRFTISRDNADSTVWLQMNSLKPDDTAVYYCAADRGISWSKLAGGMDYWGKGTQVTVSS
0.00605

Note koff for the binder shown: anti-IL-12Rβ2 VHH clone 3CAHS41 (clone ID 20394) (VHH, Tested as periplasmic extract; not shown: C-terminal HA tag) VHH: QVQLQESGGGLVQAGDSLRLSCAASGRTFDTYIVGWFRQAPGKEREFVSALSWSDDTTIRDDSLRGRFTISRDNAKNTVYLLMNSLKPEDTAVYYCAAKAKPPAATWSSYRNREWYDYWGQGTQVTVSS
0.00441

Note koff for the binder shown: anti-IL-12Rβ2 VHH clone 3CRH5 (clone ID 20373) (VHH, Tested as periplasmic extract; also called 3CRHS; not shown: C-terminal HA tag) VHH: QVQLQESGGGLVQAGGSLVLSCAASGSAALIFLMSWYRQAPGKQRELVAEVSRGGSTTYADSVEGRFTISRDNAKNIVDLQMNSLKPEDTAVYYCKADQNYGDSLRSSWGQGTQVTVSS
0.00337

The reported measurements were obtained from patent US20260209362A1.
